- Assay method text: amyloid nucleation score (Sup35N fusion, yeast selection) (log enrichment); library NNK3; higher = more nucleation; inactive = no reads after selection;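 further: zero at mode of non-aggregating sequences after 7 days selection at 30°C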
Measured quantity: amyloid nucleation score

1) DSVKSALRRGI: -0.166
2) YSLFGWVSMFGC: inactive
3) ISFGYQVYA: inactive
4) VCYYVFRTDIIIVIRVDAWL: inactive

Go through the items and report each one's amyloid nucleation score.
1. YLGCSINLGTEDIIYAESEH
2. IVNIKMNLWFYGNFMLWASS
3. YEIFSVSLR
4. IMLLLYSESYLTPRTVVNSR
5. YSIIVSRNRNGRLRFRWSNG
6. CDRRFYRMNLCKNPFNYRFG
7. CRFFSGFLRPRSNVGGNRYS

Response:
inactive
inactive
-0.221
inactive
-0.368
0.55
inactive
